The entries below come with measured kon values attached.
Biological target: T1, Human TNFa N-his trimers (His-tagged TNF, produced at ESBATech) (human, UniProt P01375 77-233)
T1 construct: Captured as trimers on a Ni-NTA sensor chip by the N-terminal His tags in the Biacore assay of the general methods; also called human TNFα; human TNF alpha; not shown: N-terminal His tag
T1 sequence (P01375 77-233 limits assumed): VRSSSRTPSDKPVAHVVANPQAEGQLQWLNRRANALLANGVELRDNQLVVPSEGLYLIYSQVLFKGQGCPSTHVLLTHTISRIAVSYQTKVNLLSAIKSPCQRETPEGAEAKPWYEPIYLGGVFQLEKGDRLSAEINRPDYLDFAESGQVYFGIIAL
Test: SPR (BIAcore T100), His-tagged human TNF captured on NTA chip, scFv as analyte
Unit M⁻¹ s⁻¹ implied. Number only.

| binder | readout kind | readout unit | observed value |
| --- | --- | --- | --- |
| EP15_min (scFv, scFv NH2-VL-(GGGGS)4-VH-COOH; also called 1073) scFv: EIVMTQSPSTLSASVGDRVIITCQASENIYTSLAWYQQKPGKAPKLLIYSASTLASGVPSRFSGSGSGAEFTLTISSLQPDDFATYYCQQGFATSNVENPFGQGTKLTVLGGGGGSGGGGSGGGGSGGGGSEVQLVESGGGLVQPGGSLRLSCAASGFTFSRYGVSWVRQAPGKGLEWVSAIGETGRAYYANWAKSRFTISRDNSKNTLYLQMNSLRAEDTAVYYCAKGEEFNNGWGAFNIWGQGTLVTVSS | kon | M⁻¹ s⁻¹ | 157000 |
| EP15_max (scFv, scFv NH2-VL-(GGGGS)4-VH-COOH; also called 1074) scFv: EIVMTQSPSTLSASVGDRVIITCQASENIYTSLAWYQQKPGKAPKLLIYSASTLASGVPSRFSGSGSGTEFTLTISSLQPDDFATYYCQQGFATSNVENPFGQGTKLTVLGGGGGSGGGGSGGGGSGGGGSEVQLVESGGGSVQPGGSLRLSCTVSGFSLSRYGVSWVRQAPGKGLEWVGAIGETGRAYYANWAKSRSTISRDTSKNTVYLQMNSLRAEDTATYYCARGEEFNNGWGAFNIWGQGTTVTVSS | kon | M⁻¹ s⁻¹ | 1.53e+06 |
| EP42_max (scFv, scFv NH2-VL-(GGGGS)4-VH-COOH; also called 1077) scFv: EIVMTQSPSTLSASVGDRVIITCQSTESVYKNNYLAWYQQKPGKAPKLLIYDASTLASGVPSRFSGSGSGTEFTLTISSLQPDDFATYYCAGYYRSGFGTANGSFGQGTKLTVLGGGGGSGGGGSGGGGSGGGGSEVQLVESGGGSVQPGGSLRLSCTVSGIDLRNDAISWVRQAPGKGLEWVSYISDWGIKYYASWVKGRFTISKDTSKNTVYLQMNSLRAEDTATYYCARGAPGAGDNGIWGQGTTVTVSS | kon | M⁻¹ s⁻¹ | 121000 |
| EP6_min (scFv, scFv NH2-VL-(GGGGS)4-VH-COOH; also called 673) scFv: EIVMTQSPSTLSASVGDRVIITCQASESIYSGLAWYQQKPGKAPKLLIYQASTLASGVPSRFSGSGSGAEFTLTISSLQPDDFATYYCQQGFGTSNVENPFGQGTKLTVLGGGGGSGGGGSGGGGSGGGGSEVQLVESGGGLVQPGGSLRLSCAASGFSLSRYGVSWVRQAPGKGLEWVSTIGEAGRAYYANWARSRFTISRDNSKNTLYLQMNSLRAEDTAVYYCAKGEVFNNGWGAFNIWGQGTLVTVSS | kon | M⁻¹ s⁻¹ | 46700 |

What value of measured kon is listed for EP6_max (scFv, scFv NH2-VL-(GGGGS)4-VH-COOH; also called 674) scFv: EIVMTQSPSTLSASVGDRVIITCQASESIYSGLAWYQQKPGKAPKLLIYQASTLASGVPSRFSGSGSGTDFTLAISSLQPDDFATYYCQQGFGTSNVENPFGQGTKLTVLGGGGGSGGGGSGGGGSGGGGSEVQLVESGGGLVQPGGSLRLSCTVSGFSLSRYGVSWVRQAPGKGLEWVGTIGEAGRAYYANWARSRSTISRDTSKNTVYLQMNSLRAEDTAVYYCARGEVFNNGWGAFNIWGQGTLVTVSS ?
284000
